Target: human NaV1.7 (Homo sapiens, UniProt Q15858)
Sequence (Q07699 19-218): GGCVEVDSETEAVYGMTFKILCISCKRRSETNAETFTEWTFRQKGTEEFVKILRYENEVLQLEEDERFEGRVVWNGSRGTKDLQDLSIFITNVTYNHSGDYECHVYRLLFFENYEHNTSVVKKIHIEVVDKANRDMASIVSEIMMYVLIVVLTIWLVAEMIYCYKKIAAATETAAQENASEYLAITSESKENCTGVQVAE
Sequence (Q15858 whole entry): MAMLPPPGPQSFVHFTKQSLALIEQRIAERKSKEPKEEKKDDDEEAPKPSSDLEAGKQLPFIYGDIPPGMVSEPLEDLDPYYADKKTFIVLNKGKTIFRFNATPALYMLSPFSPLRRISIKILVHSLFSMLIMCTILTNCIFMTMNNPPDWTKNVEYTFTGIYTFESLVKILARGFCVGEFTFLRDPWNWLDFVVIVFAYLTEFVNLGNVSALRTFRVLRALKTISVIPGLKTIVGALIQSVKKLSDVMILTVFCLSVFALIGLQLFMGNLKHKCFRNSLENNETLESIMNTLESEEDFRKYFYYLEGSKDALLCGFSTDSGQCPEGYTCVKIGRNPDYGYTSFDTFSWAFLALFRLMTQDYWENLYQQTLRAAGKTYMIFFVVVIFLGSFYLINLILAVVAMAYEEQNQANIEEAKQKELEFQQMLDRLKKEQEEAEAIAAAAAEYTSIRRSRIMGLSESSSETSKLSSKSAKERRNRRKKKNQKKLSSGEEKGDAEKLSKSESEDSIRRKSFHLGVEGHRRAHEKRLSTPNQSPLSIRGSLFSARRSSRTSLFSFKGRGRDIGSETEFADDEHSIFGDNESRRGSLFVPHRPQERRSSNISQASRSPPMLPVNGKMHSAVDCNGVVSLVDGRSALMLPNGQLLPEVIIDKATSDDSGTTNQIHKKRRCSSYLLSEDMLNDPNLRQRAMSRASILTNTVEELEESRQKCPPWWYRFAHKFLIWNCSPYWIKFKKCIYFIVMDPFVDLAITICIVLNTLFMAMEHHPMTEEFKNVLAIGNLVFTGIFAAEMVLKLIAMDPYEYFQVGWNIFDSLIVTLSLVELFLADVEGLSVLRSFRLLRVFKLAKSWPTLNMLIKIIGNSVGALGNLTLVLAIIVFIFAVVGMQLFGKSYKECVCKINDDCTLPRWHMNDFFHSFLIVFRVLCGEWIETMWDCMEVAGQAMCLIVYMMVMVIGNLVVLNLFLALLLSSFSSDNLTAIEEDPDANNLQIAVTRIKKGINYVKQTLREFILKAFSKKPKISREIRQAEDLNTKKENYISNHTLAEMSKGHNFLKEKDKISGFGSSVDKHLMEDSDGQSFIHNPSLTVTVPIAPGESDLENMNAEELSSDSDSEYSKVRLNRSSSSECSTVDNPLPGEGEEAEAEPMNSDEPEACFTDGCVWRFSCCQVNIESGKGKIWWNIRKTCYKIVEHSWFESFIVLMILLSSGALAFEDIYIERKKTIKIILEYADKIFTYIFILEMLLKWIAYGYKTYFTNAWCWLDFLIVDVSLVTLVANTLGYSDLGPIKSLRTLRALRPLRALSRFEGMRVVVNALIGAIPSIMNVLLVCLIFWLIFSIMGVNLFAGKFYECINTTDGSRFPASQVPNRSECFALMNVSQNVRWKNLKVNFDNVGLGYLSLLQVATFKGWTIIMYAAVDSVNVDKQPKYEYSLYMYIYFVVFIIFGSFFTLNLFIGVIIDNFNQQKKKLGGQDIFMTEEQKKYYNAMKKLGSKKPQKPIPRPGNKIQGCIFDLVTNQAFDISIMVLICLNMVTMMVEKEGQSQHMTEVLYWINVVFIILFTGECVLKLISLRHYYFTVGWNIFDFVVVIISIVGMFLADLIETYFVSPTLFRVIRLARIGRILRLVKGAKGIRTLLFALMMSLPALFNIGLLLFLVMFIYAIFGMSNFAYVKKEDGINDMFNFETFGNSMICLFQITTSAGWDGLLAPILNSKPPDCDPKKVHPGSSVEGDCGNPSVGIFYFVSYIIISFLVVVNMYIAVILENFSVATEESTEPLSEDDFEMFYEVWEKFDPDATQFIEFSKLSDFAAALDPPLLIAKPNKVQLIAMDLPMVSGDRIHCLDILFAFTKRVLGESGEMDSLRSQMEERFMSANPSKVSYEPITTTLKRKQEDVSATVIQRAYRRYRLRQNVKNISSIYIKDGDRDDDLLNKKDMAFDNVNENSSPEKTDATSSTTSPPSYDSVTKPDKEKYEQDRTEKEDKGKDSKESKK
Assay: cell-based
Conditions: NaV1.7, best-fit EC50
Where no end group is shown, it is not given here.
Quantity: EC50 (µM)

> print(dat)
                          substance  quantity  number
1  GLPLLALLMTLPFIQHAITN-NH2 [Mri1a]      EC50     5.6

---

Molecular target: human NaV1.7 (Homo sapiens, UniProt Q15858)
Assay: cell-based
Conditions: EC50 (potency), hNaV1.7
pEC50: −log10 of the molar value. Where no end group is shown, it is not given here.
Quantity: pEC50

> print(dat)
                          substance  result
1  GLPLLALLMTLPFIQHAITN-NH2 [Mri1a]  < 5.00

---

Biological target: human NaV1.8 (Homo sapiens, UniProt Q9Y5Y9)
Test: cell-based
Conditions: EC50 (potency), hNaV1.8
pEC50: −log10 of the molar value. Where no end group is shown, it is not given here.
Quantity: pEC50

> print(dat)
                                  substance  result
1  FLPLLILGSLLMTPPVIQAIHDAQR-NH2 [Pc1a, poneratoxin]  < 5.00

---

Target: human NaV1.7 (Homo sapiens)
Experiment: cell-based
Details: EC50 (potency), hNaV1.7; SEM
pEC50: −log10 of the molar value. Where no end group is shown, it is not given here.
Quantity: pEC50

> print(dat)
                                  substance  number
1  FLPLLILGSLLMTPPVIQAIHDAQR-NH2 [Pc1a, poneratoxin]    5.64

---

Molecular target: human NaV1.6 (Homo sapiens, UniProt Q9UQD0)
Sequence (Q9UQD0 whole entry): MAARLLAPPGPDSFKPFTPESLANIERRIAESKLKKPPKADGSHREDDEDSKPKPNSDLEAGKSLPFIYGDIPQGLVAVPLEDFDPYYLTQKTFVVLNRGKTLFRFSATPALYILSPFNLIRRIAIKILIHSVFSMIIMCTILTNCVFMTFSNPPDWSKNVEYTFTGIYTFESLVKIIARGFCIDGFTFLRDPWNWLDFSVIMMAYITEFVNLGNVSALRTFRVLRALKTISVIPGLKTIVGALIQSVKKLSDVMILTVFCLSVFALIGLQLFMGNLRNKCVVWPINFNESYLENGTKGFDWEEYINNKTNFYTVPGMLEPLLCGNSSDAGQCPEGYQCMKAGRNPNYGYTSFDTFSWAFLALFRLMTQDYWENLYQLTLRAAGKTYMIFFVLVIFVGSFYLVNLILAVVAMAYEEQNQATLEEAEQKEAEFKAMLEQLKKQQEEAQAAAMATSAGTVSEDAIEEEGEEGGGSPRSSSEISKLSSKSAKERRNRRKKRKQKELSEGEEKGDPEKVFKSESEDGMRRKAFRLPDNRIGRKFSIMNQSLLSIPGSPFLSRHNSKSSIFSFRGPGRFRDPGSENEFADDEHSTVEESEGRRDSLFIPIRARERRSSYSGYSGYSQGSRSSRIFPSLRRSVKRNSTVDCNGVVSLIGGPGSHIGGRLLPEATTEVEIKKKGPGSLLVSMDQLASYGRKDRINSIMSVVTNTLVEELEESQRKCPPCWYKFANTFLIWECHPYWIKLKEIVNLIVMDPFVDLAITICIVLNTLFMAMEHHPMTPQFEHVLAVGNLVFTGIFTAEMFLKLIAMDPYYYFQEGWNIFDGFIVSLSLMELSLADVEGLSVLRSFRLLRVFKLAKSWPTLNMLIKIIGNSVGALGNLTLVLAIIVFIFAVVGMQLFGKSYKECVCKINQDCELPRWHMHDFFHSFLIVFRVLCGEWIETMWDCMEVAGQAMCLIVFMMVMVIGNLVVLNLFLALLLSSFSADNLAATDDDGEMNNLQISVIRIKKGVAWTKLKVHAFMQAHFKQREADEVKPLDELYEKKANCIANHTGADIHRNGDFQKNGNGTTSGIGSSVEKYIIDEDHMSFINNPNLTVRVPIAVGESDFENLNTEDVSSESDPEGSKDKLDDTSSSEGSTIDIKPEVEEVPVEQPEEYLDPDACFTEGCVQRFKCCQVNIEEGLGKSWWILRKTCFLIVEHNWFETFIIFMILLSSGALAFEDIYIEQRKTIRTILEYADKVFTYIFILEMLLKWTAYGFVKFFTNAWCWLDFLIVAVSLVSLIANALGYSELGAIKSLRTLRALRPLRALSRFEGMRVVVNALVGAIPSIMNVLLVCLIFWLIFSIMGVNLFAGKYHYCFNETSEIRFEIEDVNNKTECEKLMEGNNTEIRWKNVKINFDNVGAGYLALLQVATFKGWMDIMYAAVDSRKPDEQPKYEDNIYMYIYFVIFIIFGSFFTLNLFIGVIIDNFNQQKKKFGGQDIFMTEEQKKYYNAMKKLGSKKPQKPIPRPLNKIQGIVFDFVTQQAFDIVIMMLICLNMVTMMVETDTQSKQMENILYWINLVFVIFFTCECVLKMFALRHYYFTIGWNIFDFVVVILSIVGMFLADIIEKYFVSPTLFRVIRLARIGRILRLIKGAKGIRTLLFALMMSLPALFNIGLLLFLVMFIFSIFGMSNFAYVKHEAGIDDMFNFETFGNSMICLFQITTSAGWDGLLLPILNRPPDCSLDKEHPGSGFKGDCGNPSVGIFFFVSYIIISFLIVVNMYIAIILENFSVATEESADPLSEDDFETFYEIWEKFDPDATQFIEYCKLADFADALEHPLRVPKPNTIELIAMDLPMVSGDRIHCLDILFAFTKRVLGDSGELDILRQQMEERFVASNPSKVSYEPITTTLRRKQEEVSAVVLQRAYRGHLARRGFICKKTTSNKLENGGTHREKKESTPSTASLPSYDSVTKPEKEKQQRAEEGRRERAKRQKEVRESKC
Sequence (Q07699 19-218, further chain): as the sequence (Q07699 19-218) above
Assay: cell-based
Conditions: SEM
Where no end group is shown, it is not given here.
Quantity: EC50

> print(dat)
                                  substance  result
1  FLPLLILGSLLMTPPVIQAIHDAQR-NH2 [Pc1a, poneratoxin]   97 nM
